- System: SF-539 CNS
- PROCEDURE TEXT: NCI-60 one-dose screen, 48 h (100 = growth as untreated, 0 = no growth, -100 = all killed)
- EXPERIMENTAL SETUP: 10 µM unless noted
Compounds without any hit were thinned out: in the full panel of roughly 83,000, 20% have a hit.
Please provide measured growth for the entries that follow.
# output: bare number, implied unit %

The molecule listed as `CSc1nc2[nH]ncc2c(=O)[nH]1` shows growth equal to 96

The molecule listed as `CCOC(=O)c1ccc(NC(C)=O)o1` shows growth equal to 105

The molecule listed as `CCC(=O)C1C(=O)c2ccccc2C1=O` shows growth equal to 106

The molecule listed as `Cc1ccc(S(N)(=O)=O)cc1Cl` shows growth equal to 106

The molecule listed as `Cc1cc(Cc2ccccc2)c(O)c(Cc2ccccc2)c1` shows growth equal to 101

The molecule listed as `COc1cccc(N=CNc2cccc(OC)c2)c1` shows growth equal to 98.3

The molecule listed as COC(c1ccc2c(c1)OCO2)C(C)Br (stereo not drawn) shows growth equal to 92.5

The molecule listed as `Cc1ccc(N2C(=O)c3cccc4c(N)c(S(=O)(=O)O)cc(c34)C2=O)cc1` shows growth equal to 107

The molecule listed as `CN(C)c1ccc2nc3ccc(=[N+](C)C)cc-3oc2c1` shows growth equal to 7.14

The molecule listed as `CC1(C)OC(=O)CC1=O` shows growth equal to 102

The molecule listed as `N#C/C(=C\c1ccc2c(c1)OCO2)c1ccccc1` shows growth equal to 80

The molecule listed as `O=C(O)Cc1cccc2ccccc12` shows growth equal to 108

The molecule listed as `O=C(NCc1ccccc1)/C(=C/c1ccccc1)NC(=O)c1ccccc1` shows growth equal to 115
